PROTOCOL_DETAILS: pilot pharmacokinetic study of linifanib in rats (oral)
Type: in vivo
EXPERIMENTAL_PARAMETERS: male, Wistar albino, plasma; rat, 5 mg/kg oral, single dose; read-out: average t½ (converted)
OBSERVATION_TYPE: half-life (h)
Answer format: numeric, h implied, no suffix.

Item under review: Cc1ccc(F)c(NC(=O)Nc2ccc(-c3cccc4[nH]nc(N)c34)cc2)c1 [linifanib] . Reported half-life?
6.67

----------
PROTOCOL_DETAILS: pilot pharmacokinetic study of linifanib in rats (oral)
Assay type: in vivo
EXPERIMENTAL_PARAMETERS: male, Wistar albino, plasma; rat, 5 mg/kg oral, single dose
Protocol: After an overnight fasting, all rats received linifanib (5 mg/kg, oral, dissolved in HPMC). Blood samples (approximately 0.5 mL) were collected from the retro-orbital plexus into heparinized microfuge tubes at different time interval after linifanib administration and plasma samples were harvested by centrifuging the blood at 4500 rpm for 8 min and stored frozen at −80 ± 10°C until analysis. The pharmacokinetic parameters: Cmax, Tmax, AUC, t½ and Kel were calculated using WinNonlin software.
OBSERVATION_TYPE: k el (s⁻¹)
Provide the reading as a plain figure in s⁻¹.

Entry Cc1ccc(F)c(NC(=O)Nc2ccc(-c3cccc4[nH]nc(N)c34)cc2)c1 has what k el?
2.78e-05

----------
PROTOCOL_DETAILS: pilot pharmacokinetic study of linifanib in rats (oral)
Format: in vivo
EXPERIMENTAL_PARAMETERS: male, Wistar albino, plasma; rat, 5 mg/kg oral, single dose; read-out: mean AUC0-8h
OBSERVATION_TYPE: AUC(0-t)

Returns the measured AUC(0-t) for the input molecule. Input: Cc1ccc(F)c(NC(=O)Nc2ccc(-c3cccc4[nH]nc(N)c34)cc2)c1
232 ng·h/mL

----------
PROTOCOL_DETAILS: pilot pharmacokinetic study of linifanib in rats (oral)
Type: in vivo
EXPERIMENTAL_PARAMETERS: male, Wistar albino, plasma; rat, 5 mg/kg oral, single dose; read-out: time to peak plasma concentration (Tmax)
OBSERVATION_TYPE: Tmax (h)
Give just the number in h; leave the unit off.

// Tmax lookup, key: Cc1ccc(F)c(NC(=O)Nc2ccc(-c3cccc4[nH]nc(N)c34)cc2)c1
2.5
